Biological target: human GST-HPK1 (1-346) (Homo sapiens)
Sequence (Q92918 1-346): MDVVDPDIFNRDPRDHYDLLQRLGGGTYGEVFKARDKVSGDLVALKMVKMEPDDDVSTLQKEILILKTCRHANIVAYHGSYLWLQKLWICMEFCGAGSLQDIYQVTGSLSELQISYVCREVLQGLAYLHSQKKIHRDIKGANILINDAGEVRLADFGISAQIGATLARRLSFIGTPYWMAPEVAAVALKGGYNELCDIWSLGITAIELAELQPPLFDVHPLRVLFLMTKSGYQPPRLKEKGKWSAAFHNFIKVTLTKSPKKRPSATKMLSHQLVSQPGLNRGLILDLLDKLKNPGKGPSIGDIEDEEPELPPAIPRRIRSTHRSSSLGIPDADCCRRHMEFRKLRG
pIC50: −log10 of the molar value.
Reported pIC50 values for a set of compounds

CN(C)[C@H]1CCN(c2cccc(Nc3nc(N4OCC[C@@H]4c4ccccc4)c4sccc4n3)c2)C1 [Example 64] = < 6.30
COc1cc(Nc2nc(N3OCC[C@@H]3c3ccccc3)c3sccc3n2)cc(C(=O)N2CCN(CCO)CC2)c1 [Example 67] = < 6.30
CN1CCN(C2CCN(c3ccc(Nc4nc(N5OCC[C@H]5c5ccccc5)c5cc[nH]c5n4)cc3)CC2)CC1 [Example 84] = ≤ 6.60

Note: attention shifts to another entry.
Data request: What pIC50 value was documented for this compound, COc1cc(N2CCC(N3CCN(C)CC3)CC2)ccc1Nc1nc(N2OCC[C@H]2c2ccccc2)c2cc[nH]c2n1 [Example 88] ?
Data returned: < 6.30

----------
Reported pIC50 values for a set of compounds
Molecular target: human FLT3-ITD enzyme (Homo sapiens, UniProt P36888)
Assay: FLT3 enzyme inhibitory ability (ADP-Glo kinase assay)
Conditions: human FLT3-ITD enzyme 10 ng, ATP 10 μM, 25° C. 1 hour
Procedure: The inhibitory activities of the example compounds according to the present invention to the FLT3-ITD enzyme were evaluated. Specifically, the compound of the present invention was reacted with a purified human FLT3-ITD enzyme (Signalchem). […] The enzyme activity reaction solution, the ADP-Glo reaction solution and the enzyme ability detection solution were reacted in a ratio of 2:2:1, and the activity inhibition degree of the enzyme was measured as luminescence. […]
pIC50: −log10 of the molar value.

CN1CCN(Cc2ccc(Nc3nc(N4N=CCC4c4ccccc4)c4sccc4n3)cc2C(F)(F)F)CC1 (stereo not shown) [Example 54] = < 6.30
COc1cc(Nc2nc(N3N=CCC3c3ccccc3)c3sccc3n2)ccc1C(=O)NC1CCN(C)CC1 (stereo not shown) [Example 52] = < 6.30
OCCN1CC[C@@H](Oc2cc(Nc3nc(N4OCC[C@H]4c4ccccc4)c4cc[nH]c4n3)cc(C3CC3)c2)C1 [Example 93] = < 6.30
CN1CCN(c2ccc(Nc3nc(N4N=CCC4c4cccnc4)c4sccc4n3)cc2)CC1 (stereo not shown) [Example 34] = < 6.30
CN(C)[C@@H]1CCN(c2cccc(Nc3nc(N4OCC[C@H]4c4ccccc4)c4cc[nH]c4n3)c2)C1 [Example 100] = < 6.30

Data request: What pIC50 value was documented for this compound, Clc1c[nH]c2nc(Nc3ccc4c(c3)CCNC4)nc(N3OCC[C@H]3c3ccccc3)c12 [Example 117] ?
Data returned: ≤ 6.60

Data request: What pIC50 value was documented for this compound, COc1cc(C(=O)N2CCOCC2)ccc1Nc1nc(N2OCC[C@H]2c2ccccc2)c2cc[nH]c2n1 [Example 96] ?
Data returned: ≤ 6.60

Value source: patent US20220242870A1
